Reported Normalized average relative binding affinity (ARB), HLA A*6802 is given for each of the following sequences.
tgt: HLA A*6802 (Homo sapiens, UniProt P04439, A269V/D140Y/D185E/E176V/E277Q/E87N/F33Y/G231S/I121R/I166T/I218V/L180W/L300P/L318F/N151K/P208A/P217A/Q86R/R138H/R169H/S129P/T345S/V36M)
Assay type: binding

The recorded Normalized average relative binding affinity (ARB), HLA A*6802 for entry GXXXXXXXX [3064.0006] equals 0.022

The recorded Normalized average relative binding affinity (ARB), HLA A*6802 for entry XPXXXXXXX [3064.0033] equals 0.041

The recorded Normalized average relative binding affinity (ARB), HLA A*6802 for entry XRXXXXXXX [3064.0035] equals 0.0069

The recorded Normalized average relative binding affinity (ARB), HLA A*6802 for entry EXXXXXXXX [3064.0004] equals 1.0

The recorded Normalized average relative binding affinity (ARB), HLA A*6802 for entry XXXAXXXXX [3064.0061] equals 0.24

The recorded Normalized average relative binding affinity (ARB), HLA A*6802 for entry XXPXXXXXX [3064.0053] equals 0.043

The recorded Normalized average relative binding affinity (ARB), HLA A*6802 for entry XXWXXXXXX [3064.0059] equals 0.70

The recorded Normalized average relative binding affinity (ARB), HLA A*6802 for entry VXXXXXXXX [3064.0018] equals 0.038

The recorded Normalized average relative binding affinity (ARB), HLA A*6802 for entry XQXXXXXXX [3064.0034] equals 0.0081

The recorded Normalized average relative binding affinity (ARB), HLA A*6802 for entry QXXXXXXXX [3064.0014] equals 0.039

The recorded Normalized average relative binding affinity (ARB), HLA A*6802 for entry XXFXXXXXX [3064.0045] equals 0.82

The recorded Normalized average relative binding affinity (ARB), HLA A*6802 for entry NXXXXXXXX [3064.0012] equals 0.24

The recorded Normalized average relative binding affinity (ARB), HLA A*6802 for entry XLXXXXXXX [3064.0030] equals 0.097

The recorded Normalized average relative binding affinity (ARB), HLA A*6802 for entry XFXXXXXXX [3064.0025] equals 0.017
